test: Tumor homogenate activation efficiency, ovarian cancer tissue (Examples 28, 37); assay type: in vitro ADME; settings: pH 5.0, 37° C., 2 h; Table 5
Where a SMILES comes first, the peptide text is derived from it. The star is where a group is joined. X6 = CCCCCN(CCc1c2c(nc3ccccc13)-c1cc3c(c(=O)n1C2)COC(=O)[C@]3(O)CC)*; X4 = CCCN(CCc1c2c(nc3ccccc13)-c1cc3c(c(=O)n1C2)COC(=O)[C@]3(O)CC)*; X7 = CC[C@@]1(O)C(=O)OCc2c1cc1n(c2=O)Cc2c-1nc1ccccc1c2CCN(C)*; Propanoyl(3-maleimido) = O=C1C=CC(=O)N1CCC(=O)*; PEG6 = NCCOCCOCCOCCOCCOCCOCCC(=O)O
Quick list: Percentage of release efficiency (%) Ovarian cancer tissue (A2780) per entry.
Unit % implied. Number only.

CC[C@@]1(O)C(=O)OCc2c1cc1n(c2=O)Cc2c-1nc1ccccc1c2CCN(C)C(=O)CNC(=O)[C@H](Cc1ccccc1)NC(=O)CNC(=O)CNC(=O)CCOCCOCCOCCOCCOCCOCCNC(=O)CCN1C(=O)C=CC1=O [MI-6PEG-GGFG-D1] ({Propanoyl(3-maleimido)-PEG6}-GGFG-X7)	67.2

Incoming: Returns the measured Percentage of release efficiency (%) Ovarian cancer tissue (A2780) for the input molecule. Input: CCCCCN(CCc1c2c(nc3ccccc13)-c1cc3c(c(=O)n1C2)COC(=O)[C@]3(O)CC)C(=O)CNC(=O)[C@H](CC(N)=O)NC(=O)[C@H](C)NC(=O)[C@H](C)NC(=O)CCOCCOCCOCCOCCOCCOCCNC(=O)CCN1C(=O)C=CC1=O [MI-6PEG-AANG-D4] ({Propanoyl(3-maleimido)-PEG6}-AANG-X6)
Outgoing: 86.7

Incoming: So what does the record say about Percentage of release efficiency (%) Ovarian cancer tissue (A2780) for CCCN(CCc1c2c(nc3ccccc13)-c1cc3c(c(=O)n1C2)COC(=O)[C@]3(O)CC)C(=O)CNC(=O)[C@H](CC(N)=O)NC(=O)[C@H](C)NC(=O)[C@H](C)NC(=O)CCOCCOCCOCCOCCOCCOCCNC(=O)CCN1C(=O)C=CC1=O [MI-6PEG-AANG-D3] ({Propanoyl(3-maleimido)-PEG6}-AANG-X4) ?
Outgoing: 76.2

Incoming: # lookup: Percentage of release efficiency (%) Ovarian cancer tissue (A2780) of CC[C@@]1(O)C(=O)OCC2=C1C=C1c3nc4ccccc4c(CCN(C(=O)OCc4ccc(NC(=O)[C@H](CC(N)=O)NC(=O)[C@H](C)NC(=O)[C@H](C)NC(=O)CCOCCOCCOCCOCCOCCOCCNC(=O)CCN5C(=O)C=CC5=O)cc4)C(C)C)c3CN1C2
Outgoing: 75.3

----------
// values below are reported MTD at 14 d
assay: MTD determination in mice (Examples 27, 36, 44); format: in vivo; settings: female, mouse, in vivo; mice, monitored for 14 d; Table 9
Where a SMILES comes first, the peptide text is derived from it. The star is where a group is joined. X8 = CC[C@@]1(O)C(=O)OCc2c1cc1n(c2=O)Cc2c-1nc1ccccc1c2CCN(C1CCCC1)*; X1 = CC[C@@]1(O)C(=O)OCc2c1cc1n(c2=O)Cc2c-1nc1ccccc1c2CCN(C1CCC1)*; X4 = CCCN(CCc1c2c(nc3ccccc13)-c1cc3c(c(=O)n1C2)COC(=O)[C@]3(O)CC)*; Propanoyl(3-maleimido) = O=C1C=CC(=O)N1CCC(=O)*; PEG6 = NCCOCCOCCOCCOCCOCCOCCC(=O)O

CC[C@@]1(O)C(=O)OCc2c1cc1n(c2=O)Cc2c-1nc1ccccc1c2CCN(C(=O)[C@H](CC(C)C)NC(=O)[C@H](CC(N)=O)NC(=O)[C@H](C)NC(=O)[C@H](C)NC(=O)CCOCCOCCOCCOCCOCCOCCNC(=O)CCN1C(=O)C=CC1=O)C1CCC1 [MI-6PEG-AANL-D7] ({Propanoyl(3-maleimido)-PEG6}-AANL-X1)	150 mg/kg

Incoming: Tell me the measured MTD at 14 d of CC[C@@]1(O)C(=O)OCc2c1cc1n(c2=O)Cc2c-1nc1ccccc1c2CCN(C(=O)[C@H](CC(C)C)NC(=O)[C@H](CC(N)=O)NC(=O)[C@H](C)NC(=O)[C@H](C)NC(=O)CCOCCOCCOCCOCCOCCOCCNC(=O)CCN1C(=O)C=CC1=O)C1CCCC1 [MI-6PEG-AANL-D8] ({Propanoyl(3-maleimido)-PEG6}-AANL-X8) , please.
Outgoing: 200 mg/kg

Incoming: Which MTD at 14 d reading was recorded for the compound CCCN(CCc1c2c(nc3ccccc13)-c1cc3c(c(=O)n1C2)COC(=O)[C@]3(O)CC)C(=O)[C@H](CC(C)C)NC(=O)[C@H](CC(N)=O)NC(=O)[C@H](C)NC(=O)[C@H](C)NC(=O)CCOCCOCCOCCOCCOCCOCCNC(=O)CCN1C(=O)C=CC1=O [MI-6PEG-AANL-D3] ({Propanoyl(3-maleimido)-PEG6}-AANL-X4) ?
Outgoing: 200 mg/kg

Data origin: patent US20250235545A1
